The entries below come with measured AC50 values attached.
Test system: Thyroperoxidase (TPO), gene 54314
Experiment: CCTE_Simmons_AUR_rTPO: CCTE's Amplex UltraRed Assay for Thyroperoxidase (TPO) Inhibition, Simmons Lab (AID 2283662);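 note: potency for loss of signal meaning inhibition of peroxidase activity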
Calls of active or inactive are those of the source. Rule for the calls: active = hit-call score of the fitted dose curve at least 0.9, where 1 is the maximum; inconclusive = response in the unintended direction; inactive = score below 0.9.

Examples with their reported AC50 follow.
{"compound": "CC1=C(/C=C/C(C)=C/C=C/C(C)=C/C(=O)O)C(C)(C)CCC1", "AC50": "25 µM (active)"}
{"compound": "NC(=O)N(O)[C@@H]1C=C[C@H](Oc2cccc(Oc3ccc(F)cc3)c2)C1", "AC50": "6.75 µM (active)"}
{"compound": "CCN(CC)CCNc1ccc(CNC=O)c2sc3ccc(OC)cc3c(=O)c12", "AC50": "24.9 µM (active)"}
{"compound": "O=C(O)c1ccccc1C(c1ccc(O)cc1)c1ccc(O)cc1", "AC50": "4.26 µM (active)"}
{"compound": "CC[C@H](c1ccc(O)cc1)[C@@H](CC)c1ccc(O)cc1", "AC50": "4.36 µM (active)"}
{"compound": "C#C[C@]1(O)CC[C@H]2[C@@H]3CCC4=CC(=O)CC[C@@H]4[C@H]3CC[C@@]21C", "AC50": "64.9 µM (active)"}
{"compound": "O=c1c(-c2ccc(O)cc2)coc2cc(O)ccc12", "AC50": "9.2 µM (active)"}
{"compound": "c1ccc2cc3c(ccc4ccccc43)cc2c1", "AC50": "22.6 µM (active)"}
{"compound": "Cc1oc(-c2ccccc2)nc1CCOc1ccc(C[C@H](Nc2ccccc2C(=O)c2ccccc2)C(=O)O)cc1", "AC50": "27.5 µM (active)"}
{"compound": "CCCCCCCCCCCCCC[N+](C)(C)C", "AC50": "38.4 µM (active)"}

Now for another entry.
Input: Which measured AC50 value corresponds to N#C[C@@H]1CC(F)(F)CN1C(=O)CNC1CC2CCC(C1)N2c1ncccn1 (stereo partly specified) ?
Output: 36.6 µM (active)
